# experimental target: recombinant soluble homotrimeric HA of A/duck/Yangzhou/02/05 (H8N4) (Influenza A virus A/duck/Yangzhou/02/2005(H8N4))
# test details: trimeric HA microarray, transfection supernatant set 5
# experimental conditions: remark: other sources report otherwise
measure name: Trimeric HA Binding: RLU (RLU)
Value expressed in RLU; do not type the unit.

What value of Trimeric HA Binding: RLU has been recorded for this entry: TCN-542 (5079_A16) (antibody, V domains shown) VH: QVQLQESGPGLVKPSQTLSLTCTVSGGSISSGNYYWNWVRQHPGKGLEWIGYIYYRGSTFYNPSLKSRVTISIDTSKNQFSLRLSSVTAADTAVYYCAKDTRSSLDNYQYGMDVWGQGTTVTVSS VL: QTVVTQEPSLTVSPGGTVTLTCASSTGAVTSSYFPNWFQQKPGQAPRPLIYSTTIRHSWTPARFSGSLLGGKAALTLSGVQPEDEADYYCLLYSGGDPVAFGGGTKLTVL
11600

Could you share which Trimeric HA Binding: RLU value was measured for TCN-544 (5082_A19) (antibody, V domains shown) VH: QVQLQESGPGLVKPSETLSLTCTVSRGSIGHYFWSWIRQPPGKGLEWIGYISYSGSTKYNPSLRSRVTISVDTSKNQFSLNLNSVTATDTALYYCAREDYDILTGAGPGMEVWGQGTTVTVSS VL: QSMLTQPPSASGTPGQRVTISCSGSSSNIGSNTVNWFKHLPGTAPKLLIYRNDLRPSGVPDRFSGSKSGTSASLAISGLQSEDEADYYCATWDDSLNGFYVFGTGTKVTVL ?
9440

Fill in: Trimeric HA Binding: RLU of TCN-540 (5060_F05) (antibody, V domains shown) VH: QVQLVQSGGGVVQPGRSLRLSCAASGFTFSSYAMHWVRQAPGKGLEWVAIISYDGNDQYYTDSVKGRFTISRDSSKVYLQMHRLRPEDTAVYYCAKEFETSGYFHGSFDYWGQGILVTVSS VL: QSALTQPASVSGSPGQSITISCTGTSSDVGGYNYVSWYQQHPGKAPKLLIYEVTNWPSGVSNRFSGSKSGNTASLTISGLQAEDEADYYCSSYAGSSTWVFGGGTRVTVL is ___
6080
